- Measured On: T1, Boc-Glu(OBzl)-Ala-Arg-MCA
- T1 chain: EAR
Each record here notes measured kcat/Km (mM^-1 · min^-1).
Quick one: just the number, no unit, thanks!

Solved cases (2 shown):
{"Protein": "Medaka EP-1 serine protease domain mutant E173A (protein) VVGGVNAEKGAWPWMVSLHWRGRHGCGASLIGRDWLLTAAHCVYGKNTHLQYWSAVLGLHAQSSMNSQEVQIRQVDRIIINKNYNRRTKEADIAMMHLQQPVNFTEWVLPVCLASEDQHFPAGRRCFIAGWGRDAEGGSLPDILQEAEVPLVDQDACQRLLPEYTFTSSMLCAGYPEGGVDSCQGDSGGPLMCLEDARWTLIGVTSFGVGCGRPERPGAYARVSAFTSWIAETRRSSFSDLD", "kcat/Km (mM^-1 · min^-1)": 10}
{"Protein": "Medaka EP-1 serine protease domain mutant T105E (protein) VVGGVNAEKGAWPWMVSLHWRGRHGCGASLIGRDWLLTAAHCVYGKNTHLQYWSAVLGLHAQSSMNSQEVQIRQVDRIIINKNYNRREKEADIAMMHLQQPVNFTEWVLPVCLASEDQHFPAGRRCFIAGWGRDAEGGSLPDILQEAEVPLVDQDECQRLLPEYTFTSSMLCAGYPEGGVDSCQGDSGGPLMCLEDARWTLIGVTSFGVGCGRPERPGAYARVSAFTSWIAETRRSSFSDLD", "kcat/Km (mM^-1 · min^-1)": 9}

I have this protein here, Medaka EP-1 serine protease domain mutant K63R (protein) VVGGVNAEKGAWPWMVSLHWRGRHGCGASLIGRDWLLTAAHCVYGRNTHLQYWSAVLGLHAQSSMNSQEVQIRQVDRIIINKNYNRRTKEADIAMMHLQQPVNFTEWVLPVCLASEDQHFPAGRRCFIAGWGRDAEGGSLPDILQEAEVPLVDQDECQRLLPEYTFTSSMLCAGYPEGGVDSCQGDSGGPLMCLEDARWTLIGVTSFGVGCGRPERPGAYARVSAFTSWIAETRRSSFSDLD , and I need its recorded kcat/Km (mM^-1 · min^-1). 10
